Consider the following binders and their measured optical density readings.
target: T1, human ACVR2A (human, UniProt P27037 20-135, limits assumed); assay: ELISA; further: test concentration or dose not given here
T1 construct: also called activin receptor, type II A
T1 sequence (P27037 20-135 limits assumed): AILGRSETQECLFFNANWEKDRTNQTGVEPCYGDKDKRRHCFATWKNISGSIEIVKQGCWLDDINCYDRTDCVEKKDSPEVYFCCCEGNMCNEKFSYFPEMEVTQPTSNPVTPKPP

| Binder | Display unit | optical density |
| --- | --- | --- |
| 368_C09 (antibody, V domains shown, Group I) VH: EVQLLESGGGLVQPGGSLRLSCAASGFTFSSYSMHWVRQAPGKGLEWVSNINYNGGYTGYADSVKGRFTISRDNSKNTLYLQMNSLRAEDTAVYYCARAANWHDTHLDYWGQGTLVTVSS VL: DIQMTQSPSSLSASVGDRVTITCRASQSILTYVNWYQQKPGKAPKLLIYAATSLASGVPSRFSGSGSGTDFTLTISSLQPEDFATYYCQQSYDLPLTFGGGTKVEIK | OD | 2.48 |
| 368_B11 (antibody, V domains shown, Group I) VH: EVQLLESGGGLVQPGGSLRLSCAASGFTFDSYGMHWVRQAPGKGLEWVSGINYNGGYKSYADSVKGRFTISRDNSKNTLYLQMNSLRAEDTAVYYCARAANWHDTHLDYWGQGTLVTVSS VL: DIQMTQSPSSLSASVGDRVTITCRASQSILSYLNWYQQKPGKAPKLLIYAASSLQSGVPSRFSGSGSGTDFTLTISSLQPEDFATYYCQQSYDSPLTFGGGTKVEIK | OD | 2.14 |
| 370_G04 (antibody, V domains shown, Group I) VH: EVQLLESGGGLVQPGGSLRLSCAASGFTFSSYGMHWVRQAPGKGLEWVSGINYNGGYTGYADSVKGRFTISRDNSKNTLYLQMNSLRAEDTAVYYCARAANWHDTALDYWGQGTLVTVSS VL: DIQMTQSPSSLSASVGDRVTITCRASQSILSYVNWYQQKPGKAPKLLIYAATSRASGVPSRFSGSGSGTDFTLTISSLQPEDFATYYCQQSYSTPLTFGGGTKVEIK | OD | 1.82 |
| 366_B07 (antibody, V domains shown, Group III) VH: EVQLLESGGGLVQPGGSLRLSCAASGFTFSDYGMNWVRQAPGKGLEWVSGINYNGGYTSYADSVKGRFTISRDNSKNTLYLQMNSLRAEDTAVYYCARGANWHDTHLDYWGQGTLVTVSS VL: DIQMTQSPSSLSASVGDRVTITCRASQSIVSYLNWYQQKPGKAPKLVIYATTSRASGVPSRFSGSGSGTDFTLTISSLQPEDFATYYCQQSYNSPLTFGGGTKVEIK | OD | 1.8 |
| 371_C02 (antibody, V domains shown, Group II) VH: EVQLLESGGGLVQPGGSLRLSCAASGFTFDSYGMHWVRQAPGKGLEWVAGINYNSGYTGYADSVKGRFTISRDNSKNTLYLQMNSLRAEDTAVYYCARAATWHDTHLDYWGQGTLVTVSS VL: DIQMTQSPSSLSASVGDRVTITCRASQSILTYVNWYQQKPGKAPKLLIYAASSLQSGVPSRFSGSGSGTDFTLTISSLQPEDFATYYCQQSYDTPLTFGGGTKVEIK | OD | 2.92 |
